Biological target: DNMT1 (amino acids 621–1616) (Homo sapiens, UniProt P26358)
Construct: RFTS-lacking DNMT1, amino acids 621–1616; made in house
Sequence (P26358 621-1616): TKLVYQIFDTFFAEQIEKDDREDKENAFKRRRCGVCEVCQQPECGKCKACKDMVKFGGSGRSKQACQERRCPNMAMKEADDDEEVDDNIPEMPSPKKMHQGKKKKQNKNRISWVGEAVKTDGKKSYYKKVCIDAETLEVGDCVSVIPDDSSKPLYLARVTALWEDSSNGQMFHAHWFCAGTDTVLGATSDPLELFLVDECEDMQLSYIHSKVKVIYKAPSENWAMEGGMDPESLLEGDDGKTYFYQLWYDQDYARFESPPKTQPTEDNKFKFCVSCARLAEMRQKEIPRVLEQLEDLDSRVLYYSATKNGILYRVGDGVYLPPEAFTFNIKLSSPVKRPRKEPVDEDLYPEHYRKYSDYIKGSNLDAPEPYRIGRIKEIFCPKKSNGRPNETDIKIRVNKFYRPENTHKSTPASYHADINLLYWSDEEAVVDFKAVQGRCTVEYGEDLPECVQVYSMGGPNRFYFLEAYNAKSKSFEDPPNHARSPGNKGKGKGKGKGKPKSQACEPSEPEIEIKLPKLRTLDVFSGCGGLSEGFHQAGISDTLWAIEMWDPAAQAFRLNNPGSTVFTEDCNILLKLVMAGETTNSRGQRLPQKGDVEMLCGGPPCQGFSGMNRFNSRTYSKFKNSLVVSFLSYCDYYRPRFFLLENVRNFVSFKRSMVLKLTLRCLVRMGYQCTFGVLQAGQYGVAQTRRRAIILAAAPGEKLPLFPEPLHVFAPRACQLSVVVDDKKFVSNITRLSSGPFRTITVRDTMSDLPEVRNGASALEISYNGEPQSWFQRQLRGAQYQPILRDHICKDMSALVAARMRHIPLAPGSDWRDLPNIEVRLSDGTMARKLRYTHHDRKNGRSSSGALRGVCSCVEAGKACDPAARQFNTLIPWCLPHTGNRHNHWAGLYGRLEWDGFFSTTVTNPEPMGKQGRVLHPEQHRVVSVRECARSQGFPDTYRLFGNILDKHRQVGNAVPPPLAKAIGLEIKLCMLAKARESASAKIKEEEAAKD
Test: Validation of HTS hits, endonuclease-coupled DNA methylation assay
Format: biochemical
Conditions: relative fluorescence after 25-minute incubation at 37 °C; 10.9 µM test compound; three replicates
readout.name: RFU (RFU)
Use RFU as the unit, but write only the number.

compound	target	quantity.unit	recorded.value
O=C(O)C(S)C(S)C(=O)O (stereo not drawn)	DNMT1 (amino acids 621–1616) (Homo sapiens, UniProt P26358)	RFU	612

Query compound follows.
INPUT: Consider the compound CC1/C=C/C=C/C=C/C=C/C=C/C=C/C=C/C(O[C@@H]2O[C@H](C)[C@H](O)[C@@H](O)[C@@H]2N)CC(O)C(C(=O)O)C(O)CC(=O)CC(O)CC(O)CC(O)CC(=O)CCCC(=O)CC(=O)OC1C(C)CC(C)C(O)CC(=O)c1ccc(N)cc1 (stereo partly drawn) and give its measured RFU.
OUTPUT: 677

* * *

Target: DNMT1 (amino acids 621–1616) (Homo sapiens)
Construct: RFTS-lacking DNMT1, amino acids 621–1616; made in house
Assay: Validation of HTS hits, endonuclease-coupled DNA methylation assay
Format: biochemical
Settings: normalized to DMSO control (100) and GlaI control without DNMT1 (0)
Known Normalized RFU of a selection of molecules
Write the value as a bare number.

molecule	Normalized RFU
CC(=O)NCCc1ccc(O)c(-c2c(O)c(O)c3c(c2O)C(=O)c2c(cc(O)c(C(=O)O)c2C(=O)O)C3=O)c1 [Cmpd 40, Laccaic acid A]	5
Oc1cc(Cl)ccc1Oc1ccc(Cl)cc1Cl [Cmpd 13, triclosan]	19
O=C(O)c1cc(O)c2c(c1)[C@@H]([C@@H]1c3cc(C(=O)O)cc(O)c3C(=O)c3c(O[C@H]4O[C@H](CO)[C@@H](O)[C@H](O)[C@H]4O)cccc31)c1cccc(O[C@H]3O[C@H](CO)[C@@H](O)[C@H](O)[C@H]3O)c1C2=O [Cmpd 36]	5

INPUT: Consider the molecule O=C(O)C(S)C(S)C(=O)O (stereo not drawn) [Cmpd 51] and give its measured Normalized RFU.
OUTPUT: 6

INPUT: What about this molecule? O=c1c(O)c(-c2ccc(O)c(O)c2)oc2c(O)c(O)cc(O)c12 [Cmpd 33]
OUTPUT: 46

INPUT: What about this molecule? O=C(O)c1cc(O)c2c(c1)[C@@H]([C@H]1c3cc(C(=O)O)cc(O)c3C(=O)c3c(O[C@H]4O[C@H](CO)[C@@H](O)[C@H](O)[C@H]4O)cccc31)c1cccc(O[C@H]3O[C@H](CO)[C@@H](O)[C@H](O)[C@H]3O)c1C2=O [Cmpd 22]
OUTPUT: 7

INPUT: What about this molecule? O=C1c2ccccc2C(=O)c2c1ccc(O)c2O [Cmpd 26, alizarin]
OUTPUT: 37

INPUT: What about this molecule? CC1/C=C/C=C/C=C/C=C/C=C/C=C/C=C/C(O[C@@H]2O[C@H](C)[C@H](O)[C@@H](O)[C@@H]2N)CC(O)C(C(=O)O)C(O)CC(=O)CC(O)CC(O)CC(O)CC(=O)CCCC(=O)CC(=O)OC1C(C)CC(C)C(O)CC(=O)c1ccc(N)cc1 (stereo partly drawn) [Cmpd 24]
OUTPUT: 11

INPUT: What about this molecule? CSc1nc2cc(Cl)c(Oc3cccc(Cl)c3Cl)cc2[nH]1 [Cmpd 29, triclabendazole]
OUTPUT: 27

// provenance: paper PMC3827244
